biological target: BaF3 [EML4-ALK] (Homo sapiens, UniProt Q9UM73); construct: IC50(nM) ALK (Ba/F3); other: 72 hours, CellTiter-Glo; BaF3 [EML4-ALK]; fused on or other part: Q9HC35 (Echinoderm microtubule-associated protein-like 4); assay: Cytotoxicity test (CellTiter-Glo), BaF3 [EML4-ALK]; type: cell-based; conditions: 72 hours, CellTiter-Glo; read-out: IC50(nM) ALK (Ba/F3)
Sequence (Q9UM73 whole entry, change not shown, the tested form may be a part): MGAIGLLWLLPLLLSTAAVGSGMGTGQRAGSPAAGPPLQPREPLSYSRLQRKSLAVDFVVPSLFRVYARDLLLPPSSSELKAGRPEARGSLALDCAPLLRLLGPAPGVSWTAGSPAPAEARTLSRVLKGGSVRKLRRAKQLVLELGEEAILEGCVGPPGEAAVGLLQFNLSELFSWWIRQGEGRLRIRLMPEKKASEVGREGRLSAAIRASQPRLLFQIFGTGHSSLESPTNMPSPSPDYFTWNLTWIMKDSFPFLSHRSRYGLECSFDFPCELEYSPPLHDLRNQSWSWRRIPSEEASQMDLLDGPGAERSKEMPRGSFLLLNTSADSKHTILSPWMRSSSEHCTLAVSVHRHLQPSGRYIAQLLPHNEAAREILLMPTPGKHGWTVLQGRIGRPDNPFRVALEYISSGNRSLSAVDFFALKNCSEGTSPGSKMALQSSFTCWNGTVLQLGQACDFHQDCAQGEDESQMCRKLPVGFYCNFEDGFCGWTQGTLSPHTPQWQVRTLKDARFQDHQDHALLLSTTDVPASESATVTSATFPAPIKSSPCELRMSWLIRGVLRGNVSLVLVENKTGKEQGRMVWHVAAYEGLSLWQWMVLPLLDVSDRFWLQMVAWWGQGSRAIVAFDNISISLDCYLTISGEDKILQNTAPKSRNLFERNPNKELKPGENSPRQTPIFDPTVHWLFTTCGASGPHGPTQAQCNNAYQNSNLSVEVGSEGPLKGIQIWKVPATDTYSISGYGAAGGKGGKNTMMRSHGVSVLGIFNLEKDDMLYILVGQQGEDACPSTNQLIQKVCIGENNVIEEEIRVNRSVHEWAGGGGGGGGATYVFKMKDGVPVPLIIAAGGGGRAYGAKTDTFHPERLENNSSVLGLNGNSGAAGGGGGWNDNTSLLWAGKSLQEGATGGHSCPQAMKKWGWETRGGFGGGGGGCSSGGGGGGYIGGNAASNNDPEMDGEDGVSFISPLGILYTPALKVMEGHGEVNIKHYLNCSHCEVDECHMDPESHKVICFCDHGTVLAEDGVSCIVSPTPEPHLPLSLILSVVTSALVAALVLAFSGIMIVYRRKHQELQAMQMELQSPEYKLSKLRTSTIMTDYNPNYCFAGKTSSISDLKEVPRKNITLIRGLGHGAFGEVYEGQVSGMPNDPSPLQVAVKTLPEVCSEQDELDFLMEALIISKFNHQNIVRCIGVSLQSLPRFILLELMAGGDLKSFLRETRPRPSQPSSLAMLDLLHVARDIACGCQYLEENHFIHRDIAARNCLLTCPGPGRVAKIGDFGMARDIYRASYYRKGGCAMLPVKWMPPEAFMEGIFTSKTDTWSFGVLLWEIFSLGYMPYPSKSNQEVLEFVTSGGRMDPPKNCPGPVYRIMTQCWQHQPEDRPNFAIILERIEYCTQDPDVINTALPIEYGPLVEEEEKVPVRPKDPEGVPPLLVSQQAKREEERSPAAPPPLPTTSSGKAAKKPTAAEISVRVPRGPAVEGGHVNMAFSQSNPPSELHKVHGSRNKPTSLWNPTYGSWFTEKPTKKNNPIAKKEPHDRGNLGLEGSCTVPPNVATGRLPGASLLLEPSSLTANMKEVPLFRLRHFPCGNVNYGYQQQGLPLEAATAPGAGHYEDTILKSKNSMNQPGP
For each entry below, report its GI50 value.

Prompt line: Dear colleague, I am looking for the recorded GI50 of the following molecule: `COc1cc(CCN)ccc1Nc1ncc(Cl)c(Nc2ccccc2P(C)(C)=O)n1`
Response line: 100 to 200 nM

Prompt line: Can you share its GI50? I mean this molecule: `COc1cc(C(C)(C)CN)ccc1Nc1ncc(Cl)c(Nc2ccccc2P(C)(C)=O)n1`
Response line: 25 to 50 nM

Prompt line: Can you share its GI50? I mean this molecule: COc1cc(C(C)N(C)C)ccc1Nc1ncc(Cl)c(Nc2ccccc2P(C)(C)=O)n1 (stereo not shown)
Response line: 25 to 50 nM

Prompt line: Which GI50 value belongs to COc1cc(C(C)CN(C)C)ccc1Nc1ncc(Cl)c(Nc2ccccc2P(C)(C)=O)n1 (stereo not shown) ?
Response line: 25 to 50 nM

Prompt line: Suppose we examine the molecule COc1cc(C(C)N)ccc1Nc1ncc(Cl)c(Nc2ccccc2P(C)(C)=O)n1 (stereo not shown) ; what GI50 value has been reported?
Response line: 50 to 100 nM

Prompt line: What measured GI50 goes with COc1cc(C(C)CN)ccc1Nc1ncc(Cl)c(Nc2ccccc2P(C)(C)=O)n1 (stereo not shown) ?
Response line: 200 to 1000 nM

Prompt line: # GI50 lookup, item `COc1cc(CN(C)C)ccc1Nc1ncc(Cl)c(Nc2ccccc2P(C)(C)=O)n1`
Response line: 50 to 100 nM

###

Answer each item with its documented IC50.
target: ALK [L1196M] (Homo sapiens, UniProt Q9UM73, L1196M); assay: Kinase inhibition assay, ALK [L1196M]; type: biochemical
Sequence (Q9UM73 19-1620 L1196M): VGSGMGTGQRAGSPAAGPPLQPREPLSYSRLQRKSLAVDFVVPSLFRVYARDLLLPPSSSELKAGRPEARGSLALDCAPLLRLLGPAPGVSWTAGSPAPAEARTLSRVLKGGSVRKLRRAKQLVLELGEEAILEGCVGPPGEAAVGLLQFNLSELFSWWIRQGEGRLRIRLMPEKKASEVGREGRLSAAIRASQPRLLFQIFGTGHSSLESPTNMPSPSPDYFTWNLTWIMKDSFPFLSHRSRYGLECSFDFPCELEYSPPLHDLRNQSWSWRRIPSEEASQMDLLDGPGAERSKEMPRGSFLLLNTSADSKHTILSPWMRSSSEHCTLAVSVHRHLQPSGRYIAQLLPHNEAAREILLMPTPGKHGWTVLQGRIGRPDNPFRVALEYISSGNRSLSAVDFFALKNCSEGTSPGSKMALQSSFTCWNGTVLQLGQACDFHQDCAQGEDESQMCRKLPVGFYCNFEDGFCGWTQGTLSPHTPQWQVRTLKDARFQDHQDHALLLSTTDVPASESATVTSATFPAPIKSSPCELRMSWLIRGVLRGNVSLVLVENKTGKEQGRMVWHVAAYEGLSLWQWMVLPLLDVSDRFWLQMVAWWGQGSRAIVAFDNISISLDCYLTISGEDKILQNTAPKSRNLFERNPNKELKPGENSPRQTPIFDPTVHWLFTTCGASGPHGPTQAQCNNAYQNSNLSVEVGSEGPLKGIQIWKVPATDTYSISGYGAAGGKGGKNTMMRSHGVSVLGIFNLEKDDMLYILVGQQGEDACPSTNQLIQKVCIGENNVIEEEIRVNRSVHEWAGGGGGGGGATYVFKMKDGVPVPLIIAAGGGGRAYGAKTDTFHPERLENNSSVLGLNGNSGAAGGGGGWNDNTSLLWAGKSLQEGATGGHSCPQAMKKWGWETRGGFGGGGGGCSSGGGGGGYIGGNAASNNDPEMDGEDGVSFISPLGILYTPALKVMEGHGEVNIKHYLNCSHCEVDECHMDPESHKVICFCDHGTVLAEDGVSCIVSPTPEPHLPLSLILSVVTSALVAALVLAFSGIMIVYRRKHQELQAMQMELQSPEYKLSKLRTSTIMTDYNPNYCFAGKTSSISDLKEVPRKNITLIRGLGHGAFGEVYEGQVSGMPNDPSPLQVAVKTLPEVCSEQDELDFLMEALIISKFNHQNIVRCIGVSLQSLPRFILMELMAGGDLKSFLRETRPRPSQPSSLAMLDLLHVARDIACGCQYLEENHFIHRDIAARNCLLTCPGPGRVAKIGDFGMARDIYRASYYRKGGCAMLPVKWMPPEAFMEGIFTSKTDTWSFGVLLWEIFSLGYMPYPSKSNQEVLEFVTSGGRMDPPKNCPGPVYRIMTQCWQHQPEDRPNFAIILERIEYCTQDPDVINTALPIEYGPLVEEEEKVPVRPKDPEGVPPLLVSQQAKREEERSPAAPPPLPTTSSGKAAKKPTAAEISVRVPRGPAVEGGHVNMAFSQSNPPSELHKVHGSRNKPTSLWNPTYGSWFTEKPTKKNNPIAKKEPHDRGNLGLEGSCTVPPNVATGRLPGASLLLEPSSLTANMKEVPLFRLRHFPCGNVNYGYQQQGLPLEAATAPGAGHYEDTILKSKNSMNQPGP

Prompt line: # query: IC50 of entry `COc1cc(CCN(C)C)ccc1Nc1ncc(Cl)c(Nc2ccccc2P(C)(C)=O)n1`
Response line: 2 to 5 nM

Prompt line: IC50 for COc1cc(C(C)CN(C)C)ccc1Nc1ncc(Cl)c(Nc2ccccc2P(C)(C)=O)n1 (stereo not drawn) ?
Response line: 5 to 10 nM

Prompt line: Any idea what its IC50 is? The compound is `COc1cc(CCN2CCN(C)CC2)ccc1Nc1ncc(Cl)c(Nc2ccccc2P(C)(C)=O)n1`
Response line: ≤ 2 nM

###

assay: Metabolic stability in human liver microsomes; assay type: in vitro ADME; conditions: pH 7.4, 1 μM compound, 0.5 mg/mL protein, read-out: t1/2 (min), Human liver microsome experiment
Field: half-life at 1 μM. Provide a value for each of the compounds that follow.
Could you give me the number in min? Just the number is fine.

Prompt line: Which half-life at 1 μM value is on record for CNCCc1cc(OC)c(Nc2ncc(Cl)c(Nc3ccccc3P(C)(C)=O)n2)cc1C [Example 21] ?
Response line: 50

Prompt line: Return reported half-life at 1 μM; argument: COc1cc(C(C)N(C)C)ccc1Nc1ncc(Cl)c(Nc2ccccc2P(C)(C)=O)n1 (stereo not shown) [Example 8]
Response line: 56.3

Prompt line: Name the recorded half-life at 1 μM for COc1cc(C(C)(C)N(C)C)ccc1Nc1ncc(Cl)c(Nc2ccccc2P(C)(C)=O)n1 [Example 14] .
Response line: 46.4

Prompt line: Item COc1cc(CCN)ccc1Nc1ncc(Cl)c(Nc2ccccc2P(C)(C)=O)n1 [Example 2] has what recorded half-life at 1 μM?
Response line: 160
